molecular target: BTK (human); assay: radiometric filter-binding kinase assay; conditions: compound 10.0 µM
readout_type: residual activity (%)
Give just the numeric value; % need not be written.

Exercise: I have this molecule here, CCCCCc1ccc(/C=C/[C@H](O)[C@@H](CO)NC)cc1 , and I need its recorded residual activity.
Solution: 103

Exercise: I have this molecule here, Cc1ccc2c(c1)C(=O)[C@@]1(O)CCN(c3ccccc3)C1=N2 , and I need its recorded residual activity.
Solution: 82

Exercise: I have this molecule here, CCCC(CCC)C(=O)O , and I need its recorded residual activity.
Solution: 104

Exercise: I have this molecule here, NC(=O)Nc1ccc2c(c1)/C(=C/c1cc(-c3cccnc3)c[nH]1)C(=O)N2 , and I need its recorded residual activity.
Solution: 9

Exercise: I have this molecule here, CC(C)C[C@H](NC(=O)CNC(=O)c1cc(Cl)ccc1Cl)B1OC(=O)CC(CC(=O)O)(C(=O)O)O1 (stereo partly specified) , and I need its recorded residual activity.
Solution: 90

Exercise: I have this molecule here, N#Cc1c(O)c2c(-c3ccc(-c4ccccc4O)cc3)csc2[nH]c1=O , and I need its recorded residual activity.
Solution: 52

Exercise: I have this molecule here, Cc1ccc(Sc2cnc(Nc3cccc(Br)n3)s2)cc1C(=O)N1CCN(C(=O)CN)CC1 , and I need its recorded residual activity.
Solution: 8

Exercise: I have this molecule here, Oc1ccc(/C=C/c2cc(O)cc(O)c2)cc1 , and I need its recorded residual activity.
Solution: 75

Exercise: I have this molecule here, O=C1NC(=S)N[C@@H]1Cc1c[nH]c2ccccc12 , and I need its recorded residual activity.
Solution: 99

Exercise: I have this molecule here, CC1=C(CO)C(=O)O[C@@H]([C@@H](C)[C@H]2CC[C@H]3[C@@H]4C[C@H]5O[C@]56[C@@H](O)C=CC(=O)[C@]6(C)C4CC[C@]23C)C1 (stereo partly specified) , and I need its recorded residual activity.
Solution: 110

Exercise: I have this molecule here, NS(=O)(=O)OC[C@@H]1C[C@@H](n2ccc3c(N[C@H]4CCc5ccccc54)ncnc32)C[C@@H]1O , and I need its recorded residual activity.
Solution: 105

Exercise: I have this molecule here, NC(=O)c1c(NC(=O)C2CC2)sc2c1CCCC2 , and I need its recorded residual activity.
Solution: 68

Exercise: I have this molecule here, O=S(=O)(c1ccc(F)c2nonc12)N1CCN(c2ncc(C(F)(F)F)cc2Cl)CC1 , and I need its recorded residual activity.
Solution: 86

Exercise: I have this molecule here, Cc1nc(-c2ccc(OCC(C)C)c(C#N)c2)sc1C(=O)O , and I need its recorded residual activity.
Solution: 101

Exercise: I have this molecule here, CCOC(=O)c1ccc(N2NC(=O)/C(=C/c3ccc([N+](=O)[O-])o3)C2=O)cc1 , and I need its recorded residual activity.
Solution: 70

Exercise: I have this molecule here, NC(=O)c1ccc(-c2ccc(Oc3cncc4sc(-c5nn[nH]n5)cc34)cc2)cc1 , and I need its recorded residual activity.
Solution: 71

Exercise: I have this molecule here, Oc1ccc2ccccc2c1SSc1c(O)ccc2ccccc12 , and I need its recorded residual activity.
Solution: 27

Exercise: I have this molecule here, NC1(c2ccc(-c3nc4ccn5c(=O)[nH]nc5c4cc3-c3ccccc3)cc2)CCC1 , and I need its recorded residual activity.
Solution: 99

Exercise: I have this molecule here, CCn1c(-c2nonc2N)nc2cncc(CNC3CCNCC3)c21 , and I need its recorded residual activity.
Solution: 112

Exercise: I have this molecule here, O=C(Nc1ccccc1-c1cn2c(CN3CCNCC3)csc2n1)c1cnc2ccccc2n1 , and I need its recorded residual activity.
Solution: 79

Exercise: I have this molecule here, NC(=O)c1cc(-c2ccnc(NC3CCCCC3)c2)nc(N2CCNCC2)c1 , and I need its recorded residual activity.
Solution: 79
